System: NCI-H28
Assay: COMPOUND A In Vitro Assay
Type: cell-based
Conditions: Homo sapiens, NCI-H28, NCI-H28 cells
quantity measured: IC50 (nM)
Supply the numeric figure in nM, leaving out any unit text.

input: Recorded IC50 of CCOc1cc(C(C)(C)C)ccc1C1=N[C@@](C)(c2ccc(Cl)cc2)[C@@](C)(c2ccc(Cl)cc2)N1C(=O)N1CCN(CCCS(C)(=O)=O)CC1 [COMPOUND A] , please.
output: 500

* * *

System: 647-V
Assay: COMPOUND A In Vitro Assay
Format: cell-based
Conditions: Homo sapiens, Urinary tract, urothelium, TP53 Mutant
quantity measured: pIC50
Notebook: values listed as pIC50 are -log10 of the concentration (mol/L).

input: # query: pIC50 | item CCOc1cc(C(C)(C)C)ccc1C1=N[C@@](C)(c2ccc(Cl)cc2)[C@@](C)(c2ccc(Cl)cc2)N1C(=O)N1CCN(CCCS(C)(=O)=O)CC1 | system: 647-V
output: 4.77

* * *

Tested on: MDA-MB-468
Experiment: COMPOUND A In Vitro Assay
Format: cell-based
Settings: Homo sapiens, Breast, mammary gland, TP53 Mutant
quantity measured: pIC50
Notebook: values listed as pIC50 are -log10 of the concentration (mol/L).

input: Recorded pIC50 of CCOc1cc(C(C)(C)C)ccc1C1=N[C@@](C)(c2ccc(Cl)cc2)[C@@](C)(c2ccc(Cl)cc2)N1C(=O)N1CCN(CCCS(C)(=O)=O)CC1 [COMPOUND A] , please.
output: 5.00

* * *

System: MOLM-13
Assay: COMPOUND A In Vitro Assay
Format: cell-based
Details: Homo sapiens, MOLM-13, MOLM-13; Blood; TP53 Wild type
quantity measured: pIC50
Notebook: values listed as pIC50 are -log10 of the concentration (mol/L).

input: # query: pIC50 | item CCOc1cc(C(C)(C)C)ccc1C1=N[C@@](C)(c2ccc(Cl)cc2)[C@@](C)(c2ccc(Cl)cc2)N1C(=O)N1CCN(CCCS(C)(=O)=O)CC1 | system: MOLM-13
output: 6.72

* * *

System: CEM/C2
Test: COMPOUND A In Vitro Assay
Assay type: cell-based
Details: Homo sapiens, Lymphocyte T, peripheral blood, TP53 Mutant
quantity measured: pIC50
Notebook: values listed as pIC50 are -log10 of the concentration (mol/L).

input: Recorded pIC50 of CCOc1cc(C(C)(C)C)ccc1C1=N[C@@](C)(c2ccc(Cl)cc2)[C@@](C)(c2ccc(Cl)cc2)N1C(=O)N1CCN(CCCS(C)(=O)=O)CC1 [COMPOUND A] , please.
output: 5.03

* * *

Test system: AGS
Assay: COMPOUND A In Vitro Assay
Assay type: cell-based
Conditions: Homo sapiens, Stomach, TP53 Wild type
quantity measured: IC50 (nM)
Supply the numeric figure in nM, leaving out any unit text.

input: Recorded IC50 of CCOc1cc(C(C)(C)C)ccc1C1=N[C@@](C)(c2ccc(Cl)cc2)[C@@](C)(c2ccc(Cl)cc2)N1C(=O)N1CCN(CCCS(C)(=O)=O)CC1 , please.
output: 130

* * *

Test system: LS513
Assay: COMPOUND A In Vitro Assay
Assay type: cell-based
Settings: Homo sapiens, LS-513, LS513 cells
quantity measured: pIC50
Notebook: values listed as pIC50 are -log10 of the concentration (mol/L).

input: Recorded pIC50 of CCOc1cc(C(C)(C)C)ccc1C1=N[C@@](C)(c2ccc(Cl)cc2)[C@@](C)(c2ccc(Cl)cc2)N1C(=O)N1CCN(CCCS(C)(=O)=O)CC1 , please.
output: 6.30
